assay-remarks: folding enthalpy; higher = less favourable; fluorescence melt of hairpins on a sequencing array, two-state fit
measurement-setup: sodium 0.088 M
Is folding enthalpy at least -30 kcal/mol? Then True. If not, False.

[Q] Kindly determine if folding enthalpy recorded for GGCCACGGAAACGCAGCC (((..((....))..))) is above or exactly -30 kcal/mol.
[A] True

[Q] Kindly determine if folding enthalpy recorded for GATCAACCGTTTGATC ((((((....)))))) is above or exactly -30 kcal/mol.
[A] False

[Q] Kindly determine if folding enthalpy recorded for GAAAAAGGAAACTTTTTC (((((((....))))))) is above or exactly -30 kcal/mol.
[A] False

[Q] Kindly determine if folding enthalpy recorded for GGTGGTGAAAACCACC ((((((....)))))) is above or exactly -30 kcal/mol.
[A] False

[Q] Kindly determine if folding enthalpy recorded for GTGCCGCGAAAGCGACAC (((.(((....))).))) is above or exactly -30 kcal/mol.
[A] False

[Q] Kindly determine if folding enthalpy recorded for GCGCTGCGAAAGCGACGC (((..((....))..))) is above or exactly -30 kcal/mol.
[A] True

###

assay-remarks: folding enthalpy; higher = less favourable; fluorescence melt of hairpins on a sequencing array, two-state fit
measurement-setup: sodium 0.088 M
reported-property: folding enthalpy (kcal/mol)
# output: bare number, implied unit kcal/mol

[Q] # folding enthalpy lookup, item GTGAAACGAAAGTTCAC (((.(((....))))))
[A] -18.3

[Q] # folding enthalpy lookup, item CGCGTTCGGAAACGAGCG (((..(((....))))))
[A] -19.6

[Q] # folding enthalpy lookup, item GCACCCGAAAGGGGATGC ((((((....)))..)))
[A] -19.6

[Q] # folding enthalpy lookup, item GATGACGAAAGTCGCATC ((((((....)))..)))
[A] -11.1

[Q] # folding enthalpy lookup, item GACCAGGAAACTGGTC ((((((....))))))
[A] -39

[Q] # folding enthalpy lookup, item ACCAGGAAACTGGT (((((....)))))
[A] -21.4

[Q] # folding enthalpy lookup, item GATGGTGCGAAAGCAATC (((..(((....))))))
[A] -8.86

[Q] # folding enthalpy lookup, item GACGGCGAAAGCCTCGTC ((((((....)))..)))
[A] -13.1

[Q] # folding enthalpy lookup, item GACAACGAAAGTTGTGTC ((((((....)))..)))
[A] -14.7

[Q] # folding enthalpy lookup, item GGACACGAAAGTGTATCC ((((((....)))..)))
[A] -10.9

[Q] # folding enthalpy lookup, item GATCTTTAAGAAGATC ((((((....))))))
[A] -34.9

[Q] # folding enthalpy lookup, item TACCCGAAAGGGTA (((((....)))))
[A] -14.4

[Q] # folding enthalpy lookup, item GATTAAGGAAACTTGATC (((.(((....))).)))
[A] -26.6

[Q] # folding enthalpy lookup, item GATCATGTTATGATC ((((((...))))))
[A] -36.1

[Q] # folding enthalpy lookup, item GTGAACGAAAGTTTTCAC ((((((....)))..)))
[A] -15.6

[Q] # folding enthalpy lookup, item GCATACGAAAGTAGTGC ((((((....))).)))
[A] -24.1

[Q] # folding enthalpy lookup, item GAGACCGAAAGGTGGCTC ((((((....)))..)))
[A] -19.2

[Q] # folding enthalpy lookup, item GCGGCCGACCGC ((((....))))
[A] -26.7

[Q] # folding enthalpy lookup, item GCGACCGAAAGGTCCCGC ((((((....)))..)))
[A] -13.3

[Q] # folding enthalpy lookup, item GATCTGGTTTCAGATC ((((((....))))))
[A] -35.9

[Q] # folding enthalpy lookup, item GATAGCGGAAACGCTACC (.(((((....))))).)
[A] -12.1

[Q] # folding enthalpy lookup, item GGGTAATCGAAAGATCCC (((..(((....))))))
[A] -25

[Q] # folding enthalpy lookup, item GAGGGGGGAAACCCCTTC ((.((((....)))).))
[A] -12.5

[Q] # folding enthalpy lookup, item GATCATAAAGATGATC ((((((....))))))
[A] -24.4

[Q] # folding enthalpy lookup, item GCTATCGAAAGATGGAGC ((((((....)))..)))
[A] -15.9

[Q] # folding enthalpy lookup, item TGCGTGAAAACGCA (((((....)))))
[A] -18.1
